- System: Bscl2-GFP and Rtkn-GFP reporters in mouse embryonic stem (mES) cells
- TEST_SUMMARY: ToxTracker genotoxicity assay, overall conclusion from Bscl2-GFP and Rtkn-GFP
- PARTICULARS: positive: >= 2-fold induction at one of 10, 25, 50% cytotoxicity, with or without S9; not genotoxic: <= […] at all

[
  {
    "MOLECULE": "CCCCOCC(CN1CC1)OC(=O)NCCCCCCn1c(=O)n(CCCCCCNC(=O)OC(COCCCC)CN2CC2)c(=O)n(CCCCCCNC(=O)OC(COCCCC)CN2CC2)c1=O (stereo not shown)",
    "TARGET_OR_SYSTEM": "Bscl2-GFP and Rtkn-GFP reporters in mouse embryonic stem (mES) cells",
    "Genotoxicity test result (conclusion)": "non-genotoxic"
  },
  {
    "MOLECULE": "CCCCOCC(CN1CC1)OC(=O)NC1CCC(CC2CCC(NC(=O)OC(COCCCC)CN3CC3)CC2)CC1 (stereo not shown)",
    "TARGET_OR_SYSTEM": "Bscl2-GFP and Rtkn-GFP reporters in mouse embryonic stem (mES) cells",
    "Genotoxicity test result (conclusion)": "genotoxic"
  },
  {
    "MOLECULE": "O=C(CCN1CC1)OCC(CO)(COC(=O)CCN1CC1)COC(=O)CCN1CC1",
    "TARGET_OR_SYSTEM": "Bscl2-GFP and Rtkn-GFP reporters in mouse embryonic stem (mES) cells",
    "Genotoxicity test result (conclusion)": "genotoxic"
  },
  {
    "MOLECULE": "CCCCOCC(CN1CC1)OC(=O)NCCCCCC/N=c1\\oc(=O)n(CCCCCCNC(=O)OC(COCCCC)CN2CC2)c(=O)n1CCCCCCNC(=O)OC(COCCCC)CN1CC1 (stereo not shown)",
    "TARGET_OR_SYSTEM": "Bscl2-GFP and Rtkn-GFP reporters in mouse embryonic stem (mES) cells",
    "Genotoxicity test result (conclusion)": "non-genotoxic"
  }
]
